Molecular target: 17β-HSD10 (Homo sapiens, UniProt Q99714)
Construct: Histev (histidine tag with TEV site) (N, cleaved yes); made in house; host or cells: E. coli BL21-CodonPlus
Sequence (Q99714 whole entry): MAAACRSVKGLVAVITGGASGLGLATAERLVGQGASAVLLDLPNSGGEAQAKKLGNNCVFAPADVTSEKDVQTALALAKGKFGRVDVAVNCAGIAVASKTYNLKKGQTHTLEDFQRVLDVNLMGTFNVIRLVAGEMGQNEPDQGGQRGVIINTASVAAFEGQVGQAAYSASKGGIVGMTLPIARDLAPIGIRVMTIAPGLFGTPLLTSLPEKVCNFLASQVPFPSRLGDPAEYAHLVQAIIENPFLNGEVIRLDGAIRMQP
Test: 17β-HSD10 (ABAD) enzyme inhibition assay, NADH oxidation read at 340 nm (primary screen and dose response)
Format: biochemical
Details: recombinant 17βHSD10 enzyme assay
READOUT TYPE: Max. Effect (%)

>>> recorded_measurement("Cc1ccsc1C(=O)N1CCC[C@H]1c1ccccc1-c1ccc(Cl)cc1Cl")
105

[P] Cc1ccsc1C(=O)N1CCC[C@H]1c1ccccc1-c1cccc(S(C)(=O)=O)c1
[Q] COc1cccc(-c2ccccc2[C@@H]2CCCN2C(=O)C(C)(C)C)c1 (racemic)
[R] CNC(=O)CNc1cccc(N(CC(C)C)C(=O)c2ccccc2F)c1
List these items ordered by Max. Effect (%), big to small. Answer format: list of labels, ordered as asked.
P, Q, R
(P: 41%, Q: 20%, R: 4%)

* * *

LDH % Toxicity (50 μM Dose) values, listed per item
Tested on: mtsABAD HEK293 cells
Test: Lactate dehydrogenase (LDH) cytotoxicity assay
Format: cell-based, human
Conditions: 50 μM compound
Quick note: give the figure in %, leave out the unit.

Here is how some compounds turned out for LDH % Toxicity (50 μM Dose).
>>> recorded_measurement("CC(C)CN(C(=O)c1ccccc1F)c1cccc(N(C)Cc2ccc(O)nc2)c1 [ESC1002212]")
5.576
>>> recorded_measurement("COCCN(C(=O)c1ccccc1F)c1cccc(N(C)Cc2cn(CCOC)cn2)c1 [ESC1002164]")
5.093
>>> recorded_measurement("Cc1ccsc1C(=O)N1CCC[C@H]1c1ccccc1-c1ccc(C#N)cc1 [ESC1002316]")
3.69
>>> recorded_measurement("CC(C)OCCN(C(=O)c1ccccc1F)c1cccc(N(C)Cc2c[nH]cn2)c1 [ESC1002267]")
4.81
>>> recorded_measurement("COc1ccc(-c2ccccc2[C@H]2CCCN2C(=O)c2ccc(C)cc2)cn1 (stereo in doubt) [ESC1002120]")
4.611
>>> recorded_measurement("CC(C)CN(C(=O)c1ccccc1F)c1cccc(N(C)Cc2cn3ccccc3n2)c1 [ESC1002214]")
5.902
>>> recorded_measurement("CC(C)CN(C(=O)CCc1ccccc1)c1cccc(N(C)Cc2cnc[nH]2)c1 [ESC1002168]")
4.285

Now, please, on to the next compound.
Give mtsABAD HEK293 cells LDH % Toxicity (50 μM Dose) for CC(=O)N(CC(C)C)c1cccc(N(C)Cc2cnc[nH]2)c1 [ESC1002171]
5.933

* * *

Target: 17β-HSD10 (Homo sapiens)
Construct: Histev (histidine tag with TEV site) (N, cleaved yes); made in house; host or cells: E. coli BL21-CodonPlus
Experiment: 17β-HSD10 (ABAD) enzyme inhibition assay, NADH oxidation read at 340 nm (primary screen and dose response)
Format: biochemical
Conditions: recombinant 17βHSD10 enzyme assay
READOUT TYPE: Max. Effect (%)

Here is how some molecules turned out for Max. Effect (%).
>>> recorded_measurement("COc1cc(-c2ccccc2[C@@H]2CCCN2C(=O)c2sccc2Cl)ccc1F (racemic)")
97
>>> recorded_measurement("Cc1ccsc1C(=O)N1CCC[C@H]1c1ccccc1-c1ccccc1Cl (single isomer, unassigned) [ESC1002767]")
96

[A] CC(C)CN(C(=O)c1cccc2ccccc12)c1cccc(N(C)Cc2cnc[nH]2)c1
[B] COc1cccc(-c2ccccc2[C@H]2CCCN2C(C)c2ccccc2)c1 (stereo partly shown)
Lab note: check whether A or B has the lower measured Max. Effect (%). Write down the label of the entry you select.
B
(B: 3%, A: 87%)
